# experimental target: PARP12 (Homo sapiens, UniProt Q9H0J9)
# Sequence (Q9H0J9 1-701): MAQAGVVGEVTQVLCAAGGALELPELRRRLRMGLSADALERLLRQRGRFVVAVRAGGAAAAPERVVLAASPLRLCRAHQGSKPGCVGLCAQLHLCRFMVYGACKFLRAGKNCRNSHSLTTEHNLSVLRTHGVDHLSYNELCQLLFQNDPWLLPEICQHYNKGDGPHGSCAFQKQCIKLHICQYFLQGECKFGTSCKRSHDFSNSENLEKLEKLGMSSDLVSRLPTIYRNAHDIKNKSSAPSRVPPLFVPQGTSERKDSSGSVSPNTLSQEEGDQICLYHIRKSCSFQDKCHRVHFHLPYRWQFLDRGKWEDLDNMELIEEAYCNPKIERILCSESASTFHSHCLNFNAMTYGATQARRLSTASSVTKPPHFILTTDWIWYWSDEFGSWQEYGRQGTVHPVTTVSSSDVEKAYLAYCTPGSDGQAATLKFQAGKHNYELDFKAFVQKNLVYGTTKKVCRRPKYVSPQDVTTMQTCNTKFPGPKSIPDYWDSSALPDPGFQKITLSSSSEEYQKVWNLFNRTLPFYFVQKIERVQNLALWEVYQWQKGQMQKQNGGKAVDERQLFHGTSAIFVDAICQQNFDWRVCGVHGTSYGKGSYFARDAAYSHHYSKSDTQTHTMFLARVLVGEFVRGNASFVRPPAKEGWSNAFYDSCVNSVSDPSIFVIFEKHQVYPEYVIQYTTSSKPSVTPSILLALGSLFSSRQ
pIC50: −log10 of the molar value.
result type: pIC50

Prompt line: Answer with the recorded pIC50 for the compound listed here: Cc1c(-c2ccnc(C(F)(F)F)c2)ccc2c1CCNC2=O
Response line: < 4.52
